# Test system: HeLa
# assay: Inhibitory concentration against respiratory syncytial virus in HeLa cells
# Type: functional, cell-based
# condition_set: Homo sapiens
pIC50: −log10 of the molar value.
Label 1 when pIC50 is at or above 5; anything below gets 0.

                                    molecule  label
 0          Cc1ccc(Cc2ncn3c(N(C)C)ncnc23)cc1      0
 1  Cc1ccc(CSC2NC(=O)n3c(C)nc(C)c3N2)cc1 (configuration not stated)      0
 2  O=c1[nH]c(=S)[nH]c2c(CCCCCOCc3ccccc3)ncn12      0
 3  Cc1ccc(CSc2ncnc3c(Cc4ccc(C)cc4)ncn23)cc1      0
 4   Cc1ccc(Cc2ncn3c(=O)[nH]c(=S)[nH]c23)cc1      0
 5                         Cc1ncn2c(S)ncnc12      0
 6              Cc1ccc(Cc2ncn3c(S)ncnc23)cc1      1
 7  Cc1ccc(CSC2NC(=O)n3cnc(CCCCCOCc4ccccc4)c3N2)cc1 (configuration not stated)      1
 8                 Sc1ncnc2c(Cc3ccccc3)ncn12      1
 9                 Oc1ncnc2c(Cc3ccccc3)ncn12      0
10  CSC1NC(=O)n2cnc(Cc3ccc(C)cc3)c2N1 (configuration not stated)      1

* * *

# assay: Minimum toxic concentration required to cause a microscopically detectable alteration of normal HeLa cell morphology
# Assay type: toxicity, cell-based
# condition_set: human, HeLa cells; read-out: MTC
Below, each entry is listed with its recorded MCC.
measurement_label: MCC (µM)

                                   compound  measurement_qualifier  reported
0  Cc1nc(C)n2c1NC(SCc1ccccc1)NC2=O (stereo not given)                      >       524
1       Cc1ncn2c1NC=NC2N (stereo not given)                      >      1340
2    CSC1N=CNc2c(C)ncn21 (stereo not given)                      =       556
3           Cc1nc(C)n2c(=O)[nH]c(=S)[nH]c12                      =       510
4                 Sc1ncnc2c(Cc3ccccc3)ncn12                      =      16.5

* * *

# Tested on: HeLa
# assay: Inhibitory concentration against respiratory syncytial virus in HeLa cells
# Type: functional, cell-based
# condition_set: Homo sapiens
Catalogue of compounds with associated IC50
measurement_label: IC50

>>> print(df.to_string())
                                   compound   reported
0  CSC1N=CNc2c(C)nc(C)n21 (centres undefined)   > 515 µM
1              Cc1ncn2c(=O)[nH]c(=S)[nH]c12   > 550 µM
2      Cc1ncn2c1NC=NC2N (centres undefined)  > 1340 µM
3           Cc1nc(C)n2c(=O)[nH]c(=S)[nH]c12   > 510 µM

* * *

# assay: Minimum toxic concentration required to cause a microscopically detectable alteration of normal MDCK cell morphology
# Type: toxicity, cell-based, Canis lupus familiaris
# condition_set: dog, MDCK cells; read-out: MTC
Listed here: items and their measured MCC.
measurement_label: MCC

>>> df
                              compound   reported
0         Cc1ccc(Cc2ncn3c(O)ncnc23)cc1   > 833 µM
1  Cc1ncn2c1NC=NC2N (stereo not drawn)  > 1340 µM
2     Cc1ccc(Cc2ncn3c(N(C)C)ncnc23)cc1   > 749 µM

Cited source for all entries: ChEMBL document CHEMBL1128542
